Reference for the values: patent US20120135923A1

Biological target: hMC4-R (human) (UniProt P32245)
Sequence (P32245 whole entry): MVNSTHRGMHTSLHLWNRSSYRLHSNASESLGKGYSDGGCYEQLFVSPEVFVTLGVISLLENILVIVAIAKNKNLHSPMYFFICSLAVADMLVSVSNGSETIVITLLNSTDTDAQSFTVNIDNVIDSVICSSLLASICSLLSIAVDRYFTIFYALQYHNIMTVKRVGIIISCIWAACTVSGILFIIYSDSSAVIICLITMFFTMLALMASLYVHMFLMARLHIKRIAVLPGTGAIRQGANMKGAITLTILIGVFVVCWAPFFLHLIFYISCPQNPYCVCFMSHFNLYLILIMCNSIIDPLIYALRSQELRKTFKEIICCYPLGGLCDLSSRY
Test: cell-based or functional assay
Bridge positions count the residues as written; N and C are the ends. Square brackets hold non-standard residues; d marks the D form. Ends that are not written are not given here. Bip = N[C@@H](Cc1ccc(-c2ccccc2)cc1)C(=O)O; hArg = N=C(N)NCCCC[C@H](N)C(=O)O; Orn = NCCC[C@H](N)C(=O)O; Dap = NC[C@H](N)C(=O)O; βAla = NCCC(=O)O
experimental.endpoint: cAMP EC50 (nM)
Could you give me the number in nM? Just the number is fine.

[ask] Find the recorded cAMP EC50 belonging to [dF]CH[d(Et)Tyr][hArg]W[βAla][dC]T-NH2 (disulfide 2-8) [D-Phe-c(Cys-His-D-(Et)Tyr-hArg-Trp-β-Ala-D-Cys)-Thr-NH2] and report it.
[reply] 5380

[ask] Next: E[dA]H[dF]RW[Orn]-NH2 (lactam 1-7 (inferred); also: residues 1-2 joined in a hydantoin ring (C(O))) [c[Hydantoin(C(O)-(Glu-D-Ala))-His-D-Phe-Arg-Trp-Orn]-NH2]
[reply] 4.94

[ask] For [dF]CH[d(Et)Tyr][hArg][Bip][βAla][dC]T-NH2 (disulfide 2-8) [D-Phe-c(Cys-His-D-(Et)Tyr-hArg-Bip-β-Ala-D-Cys)-Thr-NH2] then?
[reply] 86.9

[ask] Moving on to the next binder: E[dA]H[dF]RW[Dap]-NH2 (lactam 1-7 (inferred); also: residues 1-2 joined in a hydantoin ring (C(O))) [c[Hydantoin(C(O)-(Glu-D-Ala))-His-D-Phe-Arg-Trp-Dap]-NH2]
[reply] 0.182

[ask] Then GCEH[dF]RWC-NH2 (disulfide 2-8; also: residues 1-2 joined in a hydantoin ring (C(O))) [c[Hydantoin(C(O)-(Gly-Cys))-Glu-His-D-Phe-Arg-Trp-Cys]-NH2] ?
[reply] 0.576
